protocol: Pharmacokinetic study in mice
Assay type: in vivo
cond: male, ICR, mouse, plasma, PO 10 mg/kg, n = 3
measurement_type: Tmax (min)
Could you give me the number in min? Just the number is fine.

# input compound: `CCCC(=O)c1c(O)c(CC2=C(O)C(C)(C)C(O)=C(C(C)=O)C2=O)c(O)c(Cc2c(O)c(CC3=C(O)C(C)(C)C(O)=C(C(C)=O)C3=O)c(O)c(C(=O)CCC)c2O)c1O` ; wanted: its Tmax
40.2
